Numbers sourced from ChEMBL document CHEMBL3988442.

Readings of Percent Effect for the listed molecules
Target: Sialic acid-binding Ig-like lectin 9 (Homo sapiens)
Experiment: Hs-Siglec9 ALPHAscreen SOP 20170721
Design: scale not given: direction of the effect not stated beside the values
Conditions: 10 µM
Measured Metric: Percent Effect (%)

INSERT INTO assay_data (molecule, measured_metric, unit_info, measured_value) VALUES
  ('O=C(O)c1ccc2ccc(N3CCN(CC4CC4)CC3)n2c1', 'Percent Effect', '%', 1.31),
  ('CCCNC(=O)NCc1cccnc1OC', 'Percent Effect', '%', 0.677),
  ('Cc1cc(C2CCCN2C(=O)c2cc3c(s2)CCC3)on1 (configuration not stated)', 'Percent Effect', '%', 3.1),
  ('CC(=O)N1CCN(CCNS(=O)(=O)c2ccc(C)c(F)c2)CC1', 'Percent Effect', '%', -13.7),
  ('c1cc(CN2Cc3nnn(CC4CC4)c3C(COCC3CC3)C2)co1 (configuration not stated)', 'Percent Effect', '%', 10.3),
  ('CCS(=O)(=O)N1CCc2c(cccc2NC(=O)NCCOC)C1', 'Percent Effect', '%', 2.98),
  ('CCc1cc(N2CCSCC2)n2nc(C)c(C)c2n1', 'Percent Effect', '%', 4.26),
  ('COCCN1CCCC12CCN(C(=O)CC1CCCC1)CC2', 'Percent Effect', '%', 0.315),
  ('CN(C)C(CNC(=O)c1cc2c([nH]c1=O)CCCC2=O)c1ccsc1 (configuration not stated)', 'Percent Effect', '%', 17.4),
  ('Cc1ccc(F)cc1S(=O)(=O)N(C)CC(N)=O', 'Percent Effect', '%', 2.8),
  ('Cc1nc(C)c(C(=O)OCCNc2ncccc2C#N)s1', 'Percent Effect', '%', 12.8),
  ('CS(=O)(=O)NCc1ncn2c1CN(C(=O)CC1CCCC1)CCC2', 'Percent Effect', '%', -3.12);
